- target under test: Human PI3K gamma (Homo sapiens)
- Construct: His (N); host or cells: SF9 insect cells (baculovirus)
- Sequence (P48736 whole entry): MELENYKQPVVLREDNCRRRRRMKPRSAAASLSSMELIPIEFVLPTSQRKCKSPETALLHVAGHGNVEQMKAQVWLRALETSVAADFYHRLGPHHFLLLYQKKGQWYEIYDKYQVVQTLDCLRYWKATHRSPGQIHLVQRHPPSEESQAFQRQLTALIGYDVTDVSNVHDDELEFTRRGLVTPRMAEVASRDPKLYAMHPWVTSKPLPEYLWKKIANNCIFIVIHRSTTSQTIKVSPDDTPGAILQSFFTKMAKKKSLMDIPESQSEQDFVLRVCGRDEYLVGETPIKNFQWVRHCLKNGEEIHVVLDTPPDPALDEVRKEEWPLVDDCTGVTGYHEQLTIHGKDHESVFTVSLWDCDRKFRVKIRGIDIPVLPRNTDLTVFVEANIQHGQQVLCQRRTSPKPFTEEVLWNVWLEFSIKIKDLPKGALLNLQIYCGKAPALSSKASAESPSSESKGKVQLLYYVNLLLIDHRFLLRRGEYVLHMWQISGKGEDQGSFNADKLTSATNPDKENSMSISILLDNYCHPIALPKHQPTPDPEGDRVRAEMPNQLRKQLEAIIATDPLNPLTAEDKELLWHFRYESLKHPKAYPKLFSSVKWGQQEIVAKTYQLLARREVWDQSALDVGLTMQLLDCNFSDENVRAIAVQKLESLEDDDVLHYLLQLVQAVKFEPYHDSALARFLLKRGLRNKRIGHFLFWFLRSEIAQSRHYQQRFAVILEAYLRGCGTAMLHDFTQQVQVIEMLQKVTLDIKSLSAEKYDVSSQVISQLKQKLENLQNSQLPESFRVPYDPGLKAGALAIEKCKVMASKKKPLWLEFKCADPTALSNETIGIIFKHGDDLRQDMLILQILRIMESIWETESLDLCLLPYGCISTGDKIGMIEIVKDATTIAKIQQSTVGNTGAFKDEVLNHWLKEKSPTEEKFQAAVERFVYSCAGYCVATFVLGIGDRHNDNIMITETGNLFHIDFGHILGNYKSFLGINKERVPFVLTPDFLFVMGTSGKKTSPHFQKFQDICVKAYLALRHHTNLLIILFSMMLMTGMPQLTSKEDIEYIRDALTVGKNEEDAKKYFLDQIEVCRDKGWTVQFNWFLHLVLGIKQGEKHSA
- assay method text: Human PI3K gamma enzyme assay (HTRF)
- Type: biochemical
- condition summary: concentration not given; b1389 states 1.0 μM for PI3K δ and γ; read-out: p110 gamma Percent Inhibition
parameter measured: inhibition at 1 µM (%)
# number only, unit % dropped from output

Exam item: Look up inhibition at 1 µM of `Clc1ccc(Cc2nc(-c3ccncc3)sc2-c2nnn[nH]2)cc1` and report it.
Marked response: 7

Exam item: Look up inhibition at 1 µM of CC(C)(C)[S+]([O-])NC(c1ccc2ccccc2c1)c1c(C(=O)O)sc(N2CCOCC2)c1C#N (centres unmarked) and report it.
Marked response: 46

Exam item: Look up inhibition at 1 µM of OC(c1cc(-c2ccncc2)sc1-c1nnc[nH]1)c1ccnc2ccccc12 (centres unmarked) and report it.
Marked response: 7

Exam item: Look up inhibition at 1 µM of OC(c1cc(-c2ccncc2)sc1-c1nnc[nH]1)c1c(F)cccc1Cl (centres unmarked) and report it.
Marked response: 14

Exam item: Look up inhibition at 1 µM of CC(=O)Nc1cc(-c2cc(C(c3ccc(Cl)cc3)N3CC[C@H](O)C3)c(-c3nnc[nH]3)s2)ccn1 (some centres unmarked) and report it.
Marked response: 44

* * *

- target under test: Human PI3K gamma (Homo sapiens)
- Construct: His (N); host or cells: SF9 insect cells (baculovirus)
- assay method text: Human PI3K gamma enzyme assay (HTRF)
- Type: biochemical
- condition summary: concentration not given; b1389 states 1.0 μM for PI3K δ and γ; read-out: p110 gamma Percent Inhibition
parameter measured: inhibition at 1 µM (%)
# number only, unit % dropped from output

Exam item: Look up inhibition at 1 µM of CC(c1ccc2cc(F)ccc2c1)c1c(C(=O)O)sc(N2CCOCC2)c1C#N (stereo not shown) [Compound 326] and report it.
Marked response: 56

Exam item: Look up inhibition at 1 µM of CC(=O)Nc1cc(-c2cc([C@H](c3ccc(Cl)cc3)N3CCC3)c(-c3nnc[nH]3)s2)ccn1 (single isomer, unassigned) [Compound 241] and report it.
Marked response: 27

Exam item: Look up inhibition at 1 µM of CC(=O)Nc1cc(-c2cc([C@H](c3ccc(Cl)cc3)N(C)C)c(-c3nnc[nH]3)s2)ccn1 (single isomer, unassigned) [Compound 261] and report it.
Marked response: 33

Exam item: Look up inhibition at 1 µM of O=C(O)c1cc(-c2sc(-c3ccncc3)nc2Cc2ccc(Cl)cc2)[nH]n1 [Compound 262] and report it.
Marked response: 4

Exam item: Look up inhibition at 1 µM of OC(c1ccc2c(c1)OCCO2)c1cc(-c2ccncc2)sc1-c1nnc[nH]1 (stereo not shown) [Compound 215] and report it.
Marked response: 8

Exam item: Look up inhibition at 1 µM of OC(c1cc(-c2ccncc2)sc1-c1nnc[nH]1)c1cccc(F)c1F (stereo not shown) [Compound 235] and report it.
Marked response: 17

Exam item: Look up inhibition at 1 µM of N#Cc1c(N2CCOCC2)sc(C(=O)O)c1C(N)c1ccc(Cl)c(Cl)c1 (stereo not shown) [Compound 291] and report it.
Marked response: 57

Exam item: Look up inhibition at 1 µM of COc1ccc(C(O)c2cc(-c3ccncc3)sc2-c2nnc[nH]2)cc1F (stereo not shown) [Compound 130] and report it.
Marked response: 22

Exam item: Look up inhibition at 1 µM of CC(=O)Nc1cc(-c2cc(C(NCCO)c3ccc(Cl)cc3)c(-c3nnc[nH]3)s2)ccn1 (stereo not shown) [Compound 226] and report it.
Marked response: 14

Exam item: Look up inhibition at 1 µM of OC(c1cc(-c2ccncc2)sc1-c1nnc[nH]1)c1cccc2nccnc12 (stereo not shown) [Compound 169] and report it.
Marked response: 7

Exam item: Look up inhibition at 1 µM of N#Cc1c(N2CCOCC2)sc(C(=O)O)c1Cc1cc2ccc(Cl)cc2[nH]1 [Compound 359] and report it.
Marked response: 64

Exam item: Look up inhibition at 1 µM of CC(=O)Nc1cc(-c2cc(C(c3ccc(Cl)cc3)N(C)C3CNC3)c(-c3nnc[nH]3)s2)ccn1 (stereo not shown) [Compound 274] and report it.
Marked response: 38

Exam item: Look up inhibition at 1 µM of CC(=O)Nc1cc(-c2cc(C(O)(CCCN(C)C)c3ccc(Cl)cc3)c(-c3nnc[nH]3)s2)ccn1 (stereo not shown) [Compound 145] and report it.
Marked response: 9

Exam item: Look up inhibition at 1 µM of NC(=O)c1sc(N2CCOCC2)nc1Cc1ccc2ccccc2c1 [Compound 334] and report it.
Marked response: 12

Exam item: Look up inhibition at 1 µM of COc1ccc(C(O)c2cc(-c3ccncc3)sc2-c2nnc[nH]2)cc1Cl (stereo not shown) [Compound 191] and report it.
Marked response: 30

Exam item: Look up inhibition at 1 µM of N#Cc1c(-c2ccncc2)sc(C(=O)O)c1Cc1ccc2ccccc2c1 [Compound 143] and report it.
Marked response: 62
